Source listed as paper PMC9822021.

Each item that follows carries a reported pIC50.
# Tested on: DND-41 acute lymphoblastic leukemia cells
# assay_summary: In vitro antiproliferative activity, MTS proliferation assay
# Format: cell-based
# condition_label: Homo sapiens, DND41, 72 h
pIC50: −log10 of the molar value.

Below, each entry is followed by its recorded pIC50 result.
compound: Brc1cnc2nc(-c3ccc(C4=NCCN4)cc3)[nH]c2c1.Cl
pIC50: 4.97
--
compound: Cn1c(-c2ccc(C#N)cc2)nc2cccnc21
pIC50: < 4.00
--
compound: CC(C)NC(=N)c1ccc(-c2nc3ncc(Br)cc3[nH]2)cc1.Cl
pIC50: 4.92

For the compound N#Cc1ccc(-c2nc3ncc(Br)cc3[nH]2)cc1 , what pIC50 is on record?
< 4.00

I'd like to know its pIC50. The compound in question is N#Cc1ccc(-c2nc3ncccc3[nH]2)cc1
< 4.00

Fill blank: measured pIC50 of the compound CC(=O)O[C@@]12CO[C@@H]1C[C@H](O)[C@@]1(C)C(=O)[C@H](O)C3=C(C)[C@@H](OC(=O)[C@H](O)[C@@H](NC(=O)OC(C)(C)C)c4ccccc4)C[C@@](O)([C@@H](OC(=O)c4ccccc4)[C@H]21)C3(C)C [DTX, docetaxel, reference compound] is ____.
8.60
